# measuredTarget: UniProt O95398
# Sequence (O95398 199-357 limits assumed): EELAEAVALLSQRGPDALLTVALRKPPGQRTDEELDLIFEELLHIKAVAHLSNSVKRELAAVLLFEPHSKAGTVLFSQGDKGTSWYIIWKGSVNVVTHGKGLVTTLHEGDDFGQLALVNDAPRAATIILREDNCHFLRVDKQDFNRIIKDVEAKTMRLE
# assayRemarks: cell-free FRET assay with purified Epac1-camps-His6 in 96 multi-well plates (EYFP/ECFP ratio R/R0)
# testSettings: 96 MWP, plate reader
measuredParameter: pEC50
Scale for pEC50: -log10 of concentration given in mol/L; no unit attached.

Lookup: Given the entry Nc1nc2c(ncn2[C@@H]2O[C@@H]3COP(=O)(O)O[C@H]3[C@H]2O)c(=O)[nH]1 [cGMP, cyclic guanosine 3′,5′-monophosphate] , report its measured pEC50.
Found: 5.11
